All figures here come from patent US8278033B2.

Test system: endothelial cells
assay summary: Anti-vascular score (AVS) on Fast Green/H&E slides of tumor cell cultures, averaged over paired comparisons
Format: cell-based, human
Parameters: key: AVS minus vehicle AVS, on 10x the 0+ to 5+ scale
measurement context: AVS corrected for the effect of vehicle by subtraction; concentrations as in Table 1
Binary classification by AVS minus VAVS (Avg), with 4 as an inclusive lower bound for satisfied; all other cases are not satisfied.

Completed entries (count: 3):
1) CNC(=O)c1cc(Oc2ccc(NC(=O)Nc3ccc(Cl)c(C(F)(F)F)c3)cc2)ccn1
not satisfied
2) N.N.[Cl][Pt][Cl] [Cisplatin]
not satisfied
3) Cc1ccc(NC(=O)c2ccc(CN3CCN(C)CC3)cc2)cc1Nc1nccc(-c2cccnc2)n1
not satisfied

Query block: # check: AVS minus VAVS (Avg) of CCN(CC)CCNC(=O)c1c(C)[nH]c(/C=C2\C(=O)Nc3ccc(F)cc32)c1C is greater than or equal to 4
Result block: satisfied

Query block: Please give the result for C#Cc1cccc(Nc2ncnc3cc(OCCOC)c(OCCOC)cc23)c1 too.
Result block: satisfied

Query block: Please give the result for COc1cc2ncnc(Nc3ccc(F)c(Cl)c3)c2cc1OCCCN1CCOCC1 too.
Result block: satisfied
